ASSAY NAME: NCI Yeast Anticancer Drug Screen. Data for the bub3 strain (AID 167)
CONDITION: S. cerevisiae bub3 mutant strain, at 50.0 µM (retest, dose inferred, filed as 5.0)
This is part of a sample that, as a whole, favours compounds with a hit. Of some 79,000 tested, about 15% had one in any assay. Activity calls are given as the source filed them. Rule as the data show it: active = growth inhibition above about 70%; inactive = the rest.
Outcomes: Yes = active, No = inactive

| COMPOUND | LABEL VALUE |
| --- | --- |
| CC1CCCN(CCc2ccccc2)CC1 (configuration not stated) | Yes |
| CC(NCCN(C)C)C1CC2CCCCN2C1 (configuration not stated) | No |
| OC1CCCC2CCC[N-]C12.OC1CCCC2CCC[N-]C12.[O]=[V][OH] (configuration not stated) | Yes |
| O=C(N/N=C/c1ccc(F)cc1)c1ccc(N(CCCl)CCCl)cc1 | No |
| O=C(Nc1ccccc1)OC(C[N+](=O)[O-])C(Cl)(Cl)Cl (configuration not stated) | Yes |
| O=[N+]([O-])c1cc(S(=O)(=O)F)ccc1Cl | Yes |
| Cc1ccccc1C[As](C)(=O)O | No |
| CCN1/C(=C\c2ccc3cc(C)ccc3[n+]2CC)[Se]c2ccccc21 | Yes |
| CCC1CCCCN1CC(C(C)=O)C(c1ccccc1)c1c(O)c2ccccc2oc1=O (configuration not stated) | No |
| CCn1c(O)c(C(=O)NC(C)c2ccc([N+](=O)[O-])cc2)c(=O)n(CC)c1=S (configuration not stated) | Yes |
| CCOP(=O)(O)C(Nc1ccc(N=Nc2ccccc2)cc1)c1cccc(C(Nc2ccc(N=Nc3ccccc3)cc2)P(=O)(O)OCC)c1 (configuration not stated) | No |
| S=P(Nc1ccccc1)(Nc1ccccc1)Oc1ccccc1 | Yes |
